These entries and their values trace back to patent US7709497B2.

procedure.summary: Aqueous solubility preliminary screen
Assay type: physicochemical
test.context: pH 7.4 phosphate buffered saline with about 5% DMSO, aqueous with cosolvent or surfactant or cyclodextrin, free base, pH 7.4 PBS with about 5% DMSO, about room temperature
From the text: […]

# compound, solubility kinetic
measured = [
    ("CCn1ncc2c(NC3CCN(C(N)=O)CC3)c(C(=O)NCc3ccc(C)c(C)c3)cnc21 [compound of formula (I)]", "~60 µg/mL"),
]
